These data points were gathered from patent US20250205259A1.

MEASURED_TARGET: NDM-5 (Klebsiella pneumoniae, UniProt C7C422, M154L/V88L)
Sequence (C7C422 29-270 V88L/M154L): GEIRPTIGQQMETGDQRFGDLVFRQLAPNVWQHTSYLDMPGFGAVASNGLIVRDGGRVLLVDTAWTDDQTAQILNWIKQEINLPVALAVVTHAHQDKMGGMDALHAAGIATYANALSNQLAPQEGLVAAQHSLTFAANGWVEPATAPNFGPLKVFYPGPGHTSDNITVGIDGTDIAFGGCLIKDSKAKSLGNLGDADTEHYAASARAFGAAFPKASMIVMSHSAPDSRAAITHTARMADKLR
ASSAY_SUMMARY: Inhibitory activity on MBL, fluorescent substrate FC-5
Type: biochemical
CONDITIONS: read-out: Inhibitory activity on MBL NDM-5 (IC50 class)
pIC50: −log10 of the molar value.
Reported pIC50 values follow for various compounds

compound=NS(=O)(=O)NCCc1cn(Cc2ccc3c(c2C(=O)O)OB(O)CC3)nn1 measured_target="NDM-5 (Klebsiella pneumoniae, UniProt C7C422, M154L/V88L)" result="6.00 to 8.00"
compound=N#Cc1ccn(Cc2ccc3c(c2C(=O)O)OB(O)CC3)c1 measured_target="NDM-5 (Klebsiella pneumoniae, UniProt C7C422, M154L/V88L)" result="6.00 to 8.00"
compound="O=C(O)c1c(Cn2ccnn2)ccc2c1OB(O)C1CC21 (stereo not drawn)" measured_target="NDM-5 (Klebsiella pneumoniae, UniProt C7C422, M154L/V88L)" result="4.00 to 6.00"
compound=N#CCCCc1cn(Cc2ccc3c(c2C(=O)O)OB(O)CC3)nn1 measured_target="NDM-5 (Klebsiella pneumoniae, UniProt C7C422, M154L/V88L)" result="6.00 to 8.00"
compound=Nc1cnn(Cc2ccc3c(c2C(=O)O)OB(O)CC3)c1 measured_target="NDM-5 (Klebsiella pneumoniae, UniProt C7C422, M154L/V88L)" result="6.00 to 8.00"

Field: next compound
Measured pIC50, N=C(N)N1CC(c2cn(Cc3ccc4c(c3C(=O)O)OB(O)CC4)nn2)C1 : 6.00 to 8.00
